# ASSAYED_TARGET: OsWRKY34 (Oryza sativa, UniProt Q0JBA9 1-250)
# Sequence (Q0JBA9 entry or part of it): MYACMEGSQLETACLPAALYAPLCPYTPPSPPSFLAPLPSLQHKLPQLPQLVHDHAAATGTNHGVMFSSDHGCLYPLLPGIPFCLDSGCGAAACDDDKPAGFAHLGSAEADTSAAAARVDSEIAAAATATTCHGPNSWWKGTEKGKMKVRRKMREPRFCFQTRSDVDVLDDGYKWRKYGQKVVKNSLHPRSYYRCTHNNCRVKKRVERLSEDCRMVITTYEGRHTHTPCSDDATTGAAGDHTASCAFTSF
# ASSAY_NAME: protein-binding microarray (RPBM); PBS, 2% BSA, 51.3 ng/ul salmon testes DNA, 50 uM zinc acetate, 200 nM TF, 25 C, 1 h; high values mean tight binding
# EXPERIMENTAL_SETUP: protein: recombinant; tags: N-terminal polyhistidine and DsRed monomer fusion (pET32a); label: CyDye5-dUTP incorporated in the synthesized complementary strand; 3' TTTTT single-stranded linker to array surface; dsDNA, one strand shown
The full ranking holds about 68,000 sequences; the median of “fluorescence intensity (a.u.)” is about 9,100, and the highest 2% start at about 16,000. The sample as a whole holds a higher share of the highest values than the screen did.
Exercise: state measured binding signal for each of the sequences provided.

Prompt: Item "GTTGCGGGGTGGGTGGTGGCGTTGCGGGAGGAGGAGGGAGCGGAGTCACCTAGTGCAG" : provide binding signal
Completion: 23100 fluorescence intensity (a.u.)

Prompt: Item "GAGCGCGCGCGTTGGGCGGGAGGGGTTTGGTTGGTGAGCGCGGAGTCACCTAGTGCAG" : provide binding signal
Completion: 11800 fluorescence intensity (a.u.)

Prompt: Item "GTTTTGTTGGGTCGGCGGCGGCGGGTGAGAGTGGAGAATGCGGAGTCACCTAGTGCAG" : provide binding signal
Completion: 12900 fluorescence intensity (a.u.)

Prompt: Item "GGAGCGCTGGGAGGAAGGGCGTAGGGAGGGAGGGGTGAGGCGGAGTCACCTAGTGCAG" : provide binding signal
Completion: 11600 fluorescence intensity (a.u.)

Prompt: Item "CTGGGGAGGGCGACGGCGCAGTGCGGGGTGGACGGGAGCGCGGAGTCACCTAGTGCAG" : provide binding signal
Completion: 8270 fluorescence intensity (a.u.)

Prompt: Item "GTGGGGTGGGTGAGCGGGATGCGGGGCTTAGGCGGGGAAGCGGAGTCACCTAGTGCAG" : provide binding signal
Completion: 16500 fluorescence intensity (a.u.)

Prompt: Item "ATGGTGGGTCTTTTGCTTCTATCTTCTTCTATGCATGAAACGGAGTCACCTAGTGCAG" : provide binding signal
Completion: 10400 fluorescence intensity (a.u.)

Prompt: Item "GGACGGCGGCGAGCGGCGAGGAGGAGGCGGGGAGGTGGGACGGAGTCACCTAGTGCAG" : provide binding signal
Completion: 9580 fluorescence intensity (a.u.)

Prompt: Item "GCGCGGCGTTGTTGGGTGTGTTCGTGAATCGGGCGGGATGCGGAGTCACCTAGTGCAG" : provide binding signal
Completion: 10500 fluorescence intensity (a.u.)

###

# ASSAYED_TARGET: OsWRKY34 (Oryza sativa, UniProt Q0JBA9 1-250)
# ASSAY_NAME: protein-binding microarray (RPBM); PBS, 2% BSA, 51.3 ng/ul salmon testes DNA, 50 uM zinc acetate, 200 nM TF, 25 C, 1 h; high values mean tight binding
# EXPERIMENTAL_SETUP: protein: recombinant; tags: N-terminal polyhistidine and DsRed monomer fusion (pET32a); label: CyDye5-dUTP incorporated in the synthesized complementary strand; 3' TTTTT single-stranded linker to array surface; dsDNA, one strand shown
The full ranking holds about 68,000 sequences; the median of “fluorescence intensity (a.u.)” is about 9,100, and the highest 2% start at about 16,000. This is one part of a sample in which the highest values are shown more often than they occur.
READOUT_TYPE: binding signal

Prompt: Item "CTCTGTTTCTAAATATTTGACACCATTGACTTTTTAGCATCGGAGTCACCTAGTGCAG" : provide binding signal
Completion: 10900 fluorescence intensity (a.u.)

Prompt: Item "TTGACACCGTTAACTTTTTAGCATATGTTTGACCGTTCATCGGAGTCACCTAGTGCAG" : provide binding signal
Completion: 9610 fluorescence intensity (a.u.)

Prompt: Item "CTTTTTAGCATATGTTTGACCGTTTGTCTTATTTAAAATACGGAGTCACCTAGTGCAG" : provide binding signal
Completion: 9700 fluorescence intensity (a.u.)

Prompt: Item "TAATACTCCTACTATGGACTTGTTCTCCGTGTTGCTTATTCGGAGTCACCTAGTGCAG" : provide binding signal
Completion: 10200 fluorescence intensity (a.u.)

Prompt: Item "TCTCGATCTCCCCGCCTATTTATGCTCGTCTCGTCACCCGCGGAGTCACCTAGTGCAG" : provide binding signal
Completion: 8140 fluorescence intensity (a.u.)
